# testedOn: Recombinant human Tyro3 (455-end) (Homo sapiens)
# Construct: GST (N)
# Sequence (Q06418 455-890 limits assumed): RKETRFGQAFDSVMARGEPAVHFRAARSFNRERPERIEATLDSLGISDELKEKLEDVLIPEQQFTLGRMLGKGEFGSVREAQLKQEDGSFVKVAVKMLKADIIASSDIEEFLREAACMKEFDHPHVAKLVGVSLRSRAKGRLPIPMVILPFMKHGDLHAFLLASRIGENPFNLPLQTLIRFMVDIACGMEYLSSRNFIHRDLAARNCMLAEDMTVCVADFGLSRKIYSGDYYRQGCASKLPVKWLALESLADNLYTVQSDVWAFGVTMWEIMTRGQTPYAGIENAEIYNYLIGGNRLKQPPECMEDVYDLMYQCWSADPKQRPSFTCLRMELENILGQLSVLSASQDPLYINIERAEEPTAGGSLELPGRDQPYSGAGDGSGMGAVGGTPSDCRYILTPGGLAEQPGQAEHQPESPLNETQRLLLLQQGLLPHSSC
# assayName: Kinase enzymatic activity assay ([33P]-ATP phosphate transfer), Tyro3
# reportedConditions: inhibitory activity on Tyro3; class symbols
# Method: Preparation of Active Recombinant Kinase Proteins: […] The enzymatic activity of all three kinases was determined as follows. […] After the plate was dried in air, scintillation fluid was added to each well and the radioactivity in each well in CPM was counted by a Microbeta TriLux. The corrected CPM in each test well was determined by subtracting the average value of Blank well values. […] The IC50 values were determined in a similar way following a serial dilution of the test compound. […]
recordedEndpoint: IC50

[
  {
    "smilesInput": "CN1CCC(n2cc(-c3cnc(N)c(-c4nc(-c5c(Cl)cccc5Cl)no4)c3)cn2)CC1",
    "measuredValue": "< 0.5 µM"
  },
  {
    "smilesInput": "CC(C)CCC(=O)N1CCC(n2cc(-c3cnc(N)c(-c4nnc(-c5c(Cl)cccc5Cl)o4)c3)cn2)CC1",
    "measuredValue": "0.5 to 1 µM"
  },
  {
    "smilesInput": "Nc1ncc(-c2cnn(C3CCCCC3)c2)cc1-c1nnc(-c2c(Cl)cccc2Cl)o1",
    "measuredValue": "> 10 µM"
  }
]

Inquiry: # lookup: IC50 of Nc1ncc(-c2cnn(C3CCNCC3)c2)cc1-c1nnc(-c2ccc(F)cc2)o1
Reply text: < 0.5 µM

Inquiry: # lookup: IC50 of Nc1ncc(-c2cnn(C3CCNCC3)c2)cc1-c1nnc(-c2cccnc2)o1
Reply text: < 0.5 µM

Inquiry: # lookup: IC50 of Nc1ncc(-c2cn[nH]c2)cc1-c1nnc(-c2ccc(F)cc2)o1
Reply text: < 0.5 µM

Inquiry: # lookup: IC50 of Nc1ncc(-c2cnn(C3CCOCC3)c2)cc1-c1ccc(-c2ccccc2)o1
Reply text: 1 to 10 µM

Inquiry: # lookup: IC50 of Nc1ncc(-c2cnn(C3CCNCC3)c2)cc1-c1nnc(-c2c(Cl)ccc(F)c2Cl)o1
Reply text: < 0.5 µM

Inquiry: # lookup: IC50 of Nc1ncc(-c2cnn(C3CCN(C(=O)Cc4ccccc4)CC3)c2)cc1-c1ncc(-c2cccc(Cl)c2)o1
Reply text: < 0.5 µM
